Source: patent US4029650A

protocol_summary: Acute toxicity (mouse)
conditions_used: in vivo, po; mouse, p.o.; read-out: Acute toxicity (DL 50) (converted)
For each record, write down the corresponding LD50.
Give just the number in mg/kg; leave the unit off.

input: Please give the documented LD50 of `COc1cc(C=CC(=O)N2CCN(CC(=O)N3CCCCC3)CC2)cc(OC)c1OC.O=C(O)/C=C\C(=O)O`
output: 2250

input: Please give the documented LD50 of `COc1ccc(CCN(C)C(=O)CN2CCN(C(=O)C=Cc3cc(OC)c(OC)c(OC)c3)CC2)cc1OC`
output: 2000

input: Please give the documented LD50 of COc1cc(C=CC(=O)N2CCN(CC(=O)N3CCCC3)CC2)cc(OC)c1OC [67 350, reference compound]
output: 1000

----------
protocol_summary: Acute toxicity (mouse)
conditions_used: in vivo, iv; intravenously (mouse), 255 mg/kg; read-out: Percentage mortality
observed_property: mortality

input: Please give the documented mortality of `COc1cc(C=CC(=O)N2CCN(CC(=O)N3CCCCCCC3)CC2)cc(OC)c1OC`
output: ~50%

----------
protocol_summary: Acute toxicity (mouse)
conditions_used: mouse, in vivo, po, 1000 mg/kg, orally (mouse), 1 000 mg/kg; read-out: Percentage mortality
observed_property: mortality (%)
Give just the number in %; leave the unit off.

input: Please give the documented mortality of COc1cc(C=CC(=O)N2CCN(CC(=O)N3CCCC3)CC2)cc(OC)c1OC [67 350, reference compound]
output: 50

----------
protocol_summary: Acute toxicity (mouse)
conditions_used: mouse, in vivo, iv, 617 mg/kg, intravenously (mouse), 617 mg/kg; read-out: Percentage mortality
observed_property: mortality (%)
Give just the number in %; leave the unit off.

input: Please give the documented mortality of COc1cc(C=CC(=O)N2CCN(CC(=O)N3CCCC3)CC2)cc(OC)c1OC [67 350, reference compound]
output: 50

----------
protocol_summary: Acute toxicity (mouse)
conditions_used: in vivo, iv; mouse, i.v.; read-out: Acute toxicity (DL 50) (converted)
Please use Yes for LD50 under 300 mg/kg and No for everything else, ties included.

input: Confirm or reject: LD50 of `COc1cc(C=CC(=O)N2CCN(CC(=O)N3CCCCC3)CC2)cc(OC)c1OC.O=C(O)/C=C\C(=O)O` lies strictly below 300 mg/kg
output: No

input: Confirm or reject: LD50 of `COc1cc(C=CC(=O)N2CCN(CC(=O)N3CCCCCCC3)CC2)cc(OC)c1OC` lies strictly below 300 mg/kg
output: Yes

input: Confirm or reject: LD50 of `COc1cc(C=CC(=O)N2CCN(CC(=O)N3CCc4ccccc4C3)CC2)cc(OC)c1OC` lies strictly below 300 mg/kg
output: No

input: Confirm or reject: LD50 of COc1cc(C=CC(=O)N2CCN(CC(=O)N3CCCC3)CC2)cc(OC)c1OC [67 350, reference compound] lies strictly below 300 mg/kg
output: No

input: Confirm or reject: LD50 of `COc1ccc(CCN(C)C(=O)CN2CCN(C(=O)C=Cc3cc(OC)c(OC)c(OC)c3)CC2)cc1OC` lies strictly below 300 mg/kg
output: Yes

----------
protocol_summary: Acute toxicity (mouse)
conditions_used: in vivo, iv; intravenously (mouse), 580 mg/kg; read-out: Percentage mortality
observed_property: mortality

input: Please give the documented mortality of COc1cc(C=CC(=O)N2CCN(CC(=O)N3CCc4ccccc4C3)CC2)cc(OC)c1OC [75 0001]
output: ~50%

----------
protocol_summary: Acute toxicity (mouse)
conditions_used: in vivo, iv; intravenously (mouse), 200 mg/kg; read-out: Percentage mortality
observed_property: mortality

input: Please give the documented mortality of COc1ccc(CCN(C)C(=O)CN2CCN(C(=O)C=Cc3cc(OC)c(OC)c(OC)c3)CC2)cc1OC [75 0002]
output: ~50%
